# System: Staphylococcus aureus ATCC 25923
# Assay type: cell-based
# condition.summary: ATCC 25923
Peptide text beside a SMILES is read from it. * marks the point of attachment. Acm = CC(=O)NC*
measured.parameter: MIC S. aureus

Here is how some compounds turned out for MIC S. aureus.
compound	endpoint.value
CSCC[C@H](NC(=O)[C@H](CCCNC(=N)N)NC(=O)[C@H](Cc1c[nH]c2ccccc12)NC(=O)[C@H](CCC(N)=O)NC(=O)[C@H](C)NC(=O)[C@H](CCCNC(=N)N)NC(=O)[C@H](CCCNC(=N)N)NC(=O)[C@H](CSCNC(C)=O)NC(=O)[C@H](CCCCN)NC(=O)[C@@H](N)Cc1ccccc1)C(=O)N[C@@H](CCCCN)C(=O)N[C@@H](CCCCN)C(=O)N[C@@H](CC(C)C)C(=O)NCC(=O)N[C@@H](C)C(=O)O [LFB A6] (H-FKC(Acm)RRAQWRMKKLGA-OH; N-terminus assumed)	>200 µg/mL
CSCC[C@H](NC(=O)[C@H](CCC(=O)O)NC(=O)[C@H](Cc1c[nH]c2ccccc12)NC(=O)[C@H](CCC(N)=O)NC(=O)[C@H](Cc1c[nH]c2ccccc12)NC(=O)[C@H](CCCNC(=N)N)NC(=O)[C@H](CC(C)C)NC(=O)[C@H](CSCNC(C)=O)NC(=O)[C@H](CCCCN)NC(=O)[C@H](C)N)C(=O)N[C@@H](CCCNC(=N)N)C(=O)N[C@@H](CCCCN)C(=O)N[C@H](C(=O)NCC(=O)NCC(=O)O)C(C)C [LFM A1 W8] (H-AKC(Acm)LRWQWEMRKVGG-OH; N-terminus assumed)	>1000 µg/mL
CSCC[C@H](NC(=O)[C@H](CCCNC(=N)N)NC(=O)[C@H](Cc1c[nH]c2ccccc12)NC(=O)[C@H](CCC(N)=O)NC(=O)[C@H](Cc1c[nH]c2ccccc12)NC(=O)[C@H](CCCNC(=N)N)NC(=O)[C@H](CCCNC(=N)N)NC(=O)[C@H](CSCNC(C)=O)NC(=O)[C@H](CCCCN)NC(=O)[C@@H](N)Cc1ccccc1)C(=O)N[C@@H](CCCCN)C(=O)N[C@@H](CCCCN)C(=O)N[C@@H](CC(C)C)C(=O)N[C@@H](Cc1c[nH]c2ccccc12)C(=O)N[C@@H](C)C(=O)O [LFB W14] (H-FKC(Acm)RRWQWRMKKLWA-OH)	25 µg/mL
CSCC[C@H](NC(=O)[C@H](CCCNC(=N)N)NC(=O)[C@H](Cc1c[nH]c2ccccc12)NC(=O)[C@H](CCC(N)=O)NC(=O)[C@H](Cc1c[nH]c2ccccc12)NC(=O)[C@H](CCCNC(=N)N)NC(=O)[C@H](CCCNC(=N)N)NC(=O)[C@H](CSCNC(C)=O)NC(=O)[C@H](CCCCN)NC(=O)[C@H](C)N)C(=O)N[C@@H](CCCCN)C(=O)N[C@@H](CCCCN)C(=O)N[C@@H](CC(C)C)C(=O)NCC(=O)N[C@@H](C)C(=O)O [LFB A1] (H-AKC(Acm)RRWQWRMKKLGA-OH)	>200 µg/mL

Would you mind giving MIC S. aureus for every compound in the list below?
1. CSCC[C@H](NC(=O)[C@H](CCCNC(=N)N)NC(=O)[C@H](Cc1ccc2ccccc2c1)NC(=O)[C@H](CCC(N)=O)NC(=O)[C@H](Cc1c[nH]c2ccccc12)NC(=O)[C@H](CCCNC(=N)N)NC(=O)[C@H](CCCNC(=N)N)NC(=O)[C@H](CSCNC(C)=O)NC(=O)[C@H](CCCCN)NC(=O)[C@@H](N)Cc1ccccc1)C(=O)N[C@@H](CCCCN)C(=O)N[C@@H](CCCCN)C(=O)N[C@@H](CC(C)C)C(=O)NCC(=O)N[C@@H](C)C(=O)O [LFB Nal8]
2. CSCC[C@H](NC(=O)[C@H](CCCNC(=N)N)NC(=O)[C@H](Cc1c[nH]c2ccccc12)NC(=O)[C@H](C)NC(=O)[C@H](Cc1c[nH]c2ccccc12)NC(=O)[C@H](CCCNC(=N)N)NC(=O)[C@H](CCCNC(=N)N)NC(=O)[C@H](CSCNC(C)=O)NC(=O)[C@H](CCCCN)NC(=O)[C@@H](N)Cc1ccccc1)C(=O)N[C@@H](CCCCN)C(=O)N[C@@H](CCCCN)C(=O)N[C@@H](CC(C)C)C(=O)NCC(=O)N[C@@H](C)C(=O)O [LFB A7] (H-FKC(Acm)RRWAWRMKKLGA-OH)

["50 µg/mL", "150 µg/mL"]

Would you mind giving MIC S. aureus for every compound in the list below?
1. CSCC[C@H](NC(=O)[C@H](CCCNC(=N)N)NC(=O)[C@H](Cc1c[nH]c2ccccc12)NC(=O)[C@H](CCC(N)=O)NC(=O)[C@H](Cc1c[nH]c2ccccc12)NC(=O)[C@H](CCCNC(=N)N)NC(=O)[C@H](CC(C)C)NC(=O)[C@H](CSCNC(C)=O)NC(=O)[C@H](CCCCN)NC(=O)[C@@H](N)CCCNC(=N)N)C(=O)N[C@@H](CCCNC(=N)N)C(=O)N[C@@H](CCCCN)C(=O)N[C@@H](Cc1ccc(O)cc1)C(=O)NCC(=O)NCC(=O)O [LFM R1, 9 W8 Y13] (H-RKC(Acm)LRWQWRMRKYGG-OH; N-terminus and C-terminus assumed)
2. CSCC[C@H](NC(=O)[C@H](CCCNC(=N)N)NC(=O)[C@H](Cc1c[nH]c2ccccc12)NC(=O)[C@H](CCC(N)=O)NC(=O)[C@H](Cc1c[nH]c2ccccc12)NC(=O)[C@H](CCCNC(=N)N)NC(=O)[C@H](C)NC(=O)[C@H](CSCNC(C)=O)NC(=O)[C@H](CCCCN)NC(=O)[C@@H](N)Cc1ccccc1)C(=O)N[C@@H](CCCCN)C(=O)N[C@@H](CCCCN)C(=O)N[C@@H](CC(C)C)C(=O)NCC(=O)N[C@@H](C)C(=O)O [LFB A4] (H-FKC(Acm)ARWQWRMKKLGA-OH)

["50 µg/mL", ">200 µg/mL"]
